method summary: Bioavailability in mouse at 3 mg/kg, iv and 10 mg/kg, po
Format: ADME, organism-based
measurement conditions: in vivo

{"chemical string": "CCOc1cc2nnc(C(N)=O)c(Nc3ccc(C)cc3F)c2cc1N1CCN(C)CC1", "bioavailability, %": 82}

###

method summary: Clearance in mouse at 3 mg/kg, iv and 10 mg/kg, po
Type: ADME, organism-based
measurement conditions: in vivo
assay readout: clearance (L/h/kg)

{"chemical string": "CCOc1cc2nnc(C(N)=O)c(Nc3ccc(C)cc3F)c2cc1N1CCN(C)CC1", "experimental result": 0.72}

###

method summary: Half life in mouse at 3 mg/kg, iv and 10 mg/kg, po
Format: ADME, organism-based
measurement conditions: in vivo

{"chemical string": "CCOc1cc2nnc(C(N)=O)c(Nc3ccc(C)cc3F)c2cc1N1CCN(C)CC1", "half-life [min]": 54}

###

Reported fraction unbound values follow for various compounds
method summary: Fraction unbound in plasma
assay readout: fraction unbound

{"chemical string": "COc1cc2nnc(C(N)=O)c(Nc3ccc(F)cc3F)c2cc1N1CCN(C)CC1", "operator symbol": "=", "experimental result": 0.096}
{"chemical string": "CCOc1cc2nnc(C(N)=O)c(Nc3cc(C)ccc3F)c2cc1N1CCN(C)CC1", "operator symbol": "=", "experimental result": 0.11}
{"chemical string": "CCOc1cc2nnc(C(N)=O)c(Nc3ccc(C)cc3F)c2cc1N1CCN(C)CC1", "operator symbol": "=", "experimental result": 0.016}
{"chemical string": "CCOc1cc2nnc(C(N)=O)c(Nc3cccc(Cl)c3Cl)c2cc1N1CCN(C)CC1", "operator symbol": "<", "experimental result": 0.017}
{"chemical string": "CCOc1cc2nnc(C(N)=O)c(Nc3ccc(F)cc3F)c2cc1N1CCN(C)CC1", "operator symbol": "=", "experimental result": 0.039}

###

method summary: Clearance in rat at 3 mg/kg, iv and 10 mg/kg, po
Format: ADME, organism-based
measurement conditions: in vivo

{"chemical string": "CCOc1cc2nnc(C(N)=O)c(Nc3ccc(C)cc3F)c2cc1N1CCN(C)CC1", "unit annotation": "mL/min/kg", "clearance": 10}

###

method summary: Half life in rat at 3 mg/kg, iv and 10 mg/kg, po
Type: ADME, organism-based
measurement conditions: in vivo

{"chemical string": "CCOc1cc2nnc(C(N)=O)c(Nc3ccc(C)cc3F)c2cc1N1CCN(C)CC1", "half-life (h)": 9.7}

###

method summary: Half life in dog at 3 mg/kg, iv and 5 mg/kg, po
Format: ADME, organism-based, Canis lupus familiaris
measurement conditions: in vivo

{"chemical string": "CCOc1cc2nnc(C(N)=O)c(Nc3ccc(C)cc3F)c2cc1N1CCN(C)CC1", "half-life [h]": 12.6}

###

method summary: Bioavailability in dog at 3 mg/kg, iv and 5 mg/kg, po
Format: ADME, organism-based, Canis lupus familiaris
measurement conditions: in vivo

{"chemical string": "CCOc1cc2nnc(C(N)=O)c(Nc3ccc(C)cc3F)c2cc1N1CCN(C)CC1", "bioavailability": "78%"}

###

method summary: Volume of distribution at steady state in dog at 3 mg/kg, iv and 5 mg/kg, po
Assay type: ADME, organism-based, Canis lupus familiaris
measurement conditions: in vivo, read-out: Vdss

{"chemical string": "CCOc1cc2nnc(C(N)=O)c(Nc3ccc(C)cc3F)c2cc1N1CCN(C)CC1", "Vd (L/kg)": 1.8}

###

method summary: Volume of distribution at steady state in rat at 3 mg/kg, iv and 10 mg/kg, po
Type: ADME, organism-based
measurement conditions: in vivo, read-out: Vdss

{"chemical string": "CCOc1cc2nnc(C(N)=O)c(Nc3ccc(C)cc3F)c2cc1N1CCN(C)CC1", "unit annotation": "L/kg", "Vd": 2.8}

###

method summary: Clearance in dog at 3 mg/kg, iv and 5 mg/kg, po
Assay type: ADME, organism-based, Canis lupus familiaris
measurement conditions: in vivo

{"chemical string": "CCOc1cc2nnc(C(N)=O)c(Nc3ccc(C)cc3F)c2cc1N1CCN(C)CC1", "clearance": "2 mL/min/kg"}

###

method summary: Aqueous solubility of the compound
measurement conditions: aqueous medium
assay readout: solubility

{"chemical string": "CCOc1cc2nnc(C(N)=O)c(Nc3cccc(Cl)c3Cl)c2cc1N1CCN(C)CC1", "assay readout": "solubility", "experimental result": "10 µM"}
{"chemical string": "COc1cc2nnc(C(N)=O)c(Nc3ccc(F)cc3F)c2cc1OC", "assay readout": "solubility", "experimental result": "3 µM"}
{"chemical string": "CCOc1cc2nnc(C(N)=O)c(Nc3cccc(Cl)c3F)c2cc1N1CCN(C)CC1", "assay readout": "solubility", "experimental result": "18 µM"}
{"chemical string": "COc1cc2nnc(C(N)=O)c(Nc3ccc(C)cc3F)c2cc1OC", "assay readout": "solubility", "experimental result": "< 1 µM"}
{"chemical string": "CCOc1cc2nnc(C(N)=O)c(Nc3ccc(C)cc3F)c2cc1N1CCN(C)CC1", "assay readout": "solubility", "experimental result": "27 µM"}
{"chemical string": "COc1cc2nnc(C(N)=O)c(Nc3cccc(Cl)c3F)c2cc1OC", "assay readout": "solubility", "experimental result": "< 1 µM"}
{"chemical string": "COc1cc2nnc(C(N)=O)c(Nc3cc(C)ccc3F)c2cc1OC", "assay readout": "solubility", "experimental result": "< 1 µM"}
{"chemical string": "COc1cc2nnc(C(N)=O)c(Nc3ccc(F)cc3F)c2cc1N1CCN(C)CC1", "assay readout": "solubility", "experimental result": "290 µM"}
{"chemical string": "COc1cc2nnc(C(N)=O)c(Nc3cc(C)ccc3F)c2cc1N1CCN(C)CC1", "assay readout": "solubility", "experimental result": "22 µM"}
{"chemical string": "COc1cc2nnc(C(N)=O)c(Nc3cccc(Cl)c3F)c2cc1N1CCN(C)CC1", "assay readout": "solubility", "experimental result": "110 µM"}
{"chemical string": "COc1cc2nnc(C(N)=O)c(Nc3cccc(Cl)c3Cl)c2cc1OC", "assay readout": "solubility", "experimental result": "< 1 µM"}
{"chemical string": "CCOc1cc2nnc(C(N)=O)c(Nc3cc(C)ccc3F)c2cc1N1CCN(C)CC1", "assay readout": "solubility", "experimental result": "120 µM"}

Value source: ChEMBL document CHEMBL1681665
